// data source = PubChem BioAssay (NCATS)

test system: FAB9; assay: qHTS profiling for inhibitors of Plasmodium falciparum proliferation (AID 504749); further: nearly all actives have a fitted effect of over 60% in size; details: P. falciparum in erythrocytes, SYBR Green DNA, 72 h; series mostly up to 28.7 µM
Results filed as inconclusive are left out. Calls of active or inactive are those of the source. The call rests on the fitted dose curve; in most records, active means well fitted inhibition curve with a large enough effect; inconclusive means small, poorly fitted or top-dose-only effect; inactive means flat fitted curve, though single readings scatter.

# COMPOUND, outcome
data = [
    ("NNCCc1ccccc1", "inactive"),
    ("Cc1[nH]c(=O)c(C#N)cc1-c1ccncc1", "inactive"),
    ("Nc1ccc(S(=O)(=O)Nc2ccnn2-c2ccccc2)cc1", "inactive"),
    ("Oc1ccc(C2CNCCc3c2cc(O)c(O)c3Cl)cc1 (configuration not stated)", "inactive"),
    ("NS(=O)(=O)c1cc2c(cc1Cl)NC=NS2(=O)=O", "inactive"),
    ("CC(=O)Oc1ccccc1C(=O)O", "inactive"),
    ("O=c1[nH]cnc2[nH]ncc12", "inactive"),
]
